tested on: RARg:RXRa (NR concentration 270 nM, RXRa partner concentration 90 nM); assay: PBM binding z-score (relative to random genomic background probes); higher = stronger binding; sequences stand for … in GC…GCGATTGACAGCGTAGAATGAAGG
Entries and their measured PBM binding z-score follow.
endpoint: PBM binding z-score

>>> numeric_result("ACTCGGAGGACAAAGGACAGAGCTACGCCAGTGA")
1
>>> numeric_result("ACTATTAGTTGACTTAGGGCAAGCGATACGACGC")
0.671
>>> numeric_result("TCTAGTTGGTCAAAAGTCACACACTCGAAATGCG")
1.34
>>> numeric_result("CCAGACAGGTGAAAGGTAACTAAGTCTGGTACGC")
1.08
>>> numeric_result("TGTCAAAGTTCAAAGGCAACGTAAGTATCCACAC")
5.59
>>> numeric_result("ATCTCTAGGAAACAAGTTCAGTGAAAGAGAGGAC")
1
>>> numeric_result("TCTTGTAGATCAACAGGTGGTTAAGAAAGATCGA")
-0.241
>>> numeric_result("CGAACTCGGTCAAGGACAGTGAATCTCCGCACGC")
1.95
>>> numeric_result("ATATGTAGGGTATCGGGTCATTCAGTTTGCGCAT")
2.43
>>> numeric_result("AACTCTAGGTAACCAAGTTCAGTGAATGCCGAAC")
0.219
>>> numeric_result("AGAACGAGGGCAACGAGTTGATAGCACGGGTGGC")
1.41
>>> numeric_result("CCTGCTAGGTCAAGGTCAGCTAATCTACAGTATG")
5.45
>>> numeric_result("CCTTACGGGTCACGAGGTTATGGCACGACGAGCG")
6.05
>>> numeric_result("CTACCAAGGTGAACAAGGGCGTTGATTACTATTC")
1
>>> numeric_result("TTTCCAAGGTGAGCTGAGGTCGTTGATCCAACTC")
1.51
>>> numeric_result("ACTCGGAGGACAAAGGGCAGAGCTACGCCAGTGA")
1.81
>>> numeric_result("TTACCAAGGGGAGCTGAGGTCGTTGATCCAACTC")
0.0282
>>> numeric_result("CTCGAAAGGTCGTTCTCAGGTGAGTATACCAAAC")
5.28
>>> numeric_result("TCTTGTAGATGAAAGGTTAAGAAAGCCGAAGCCT")
1.2
>>> numeric_result("TCTAGTTGGGCACGGAGGTCACACACGACGGGTA")
4.07
>>> numeric_result("CTCGAAAGGTCGGTTGCGGTGAGTATACGGATAA")
2.44
>>> numeric_result("CGTCCAAGGTCAAGGTCCGTGAAAGAGACTCGAA")
6.16
>>> numeric_result("CCTCGGAGGACGACAGGAGGTCAGAGCTGCCAGA")
2.54
>>> numeric_result("ACTAGTTGGTGAGCTGAGGTCACACACAATTCGG")
3.85
>>> numeric_result("TGTTGTAGATCAAGCAGGTTAAGAAAGCCTGAGT")
-0.0637
>>> numeric_result("GCGACTGGGGAAAAGCAGGTTACCATAAGGTTGG")
-0.0185
>>> numeric_result("CCCATTAGTTGACCATAAGGGCAACCGAAGCTCG")
1.4
>>> numeric_result("ATCTCTAGGTAAAGATAGTTCTGTGAATGCAAAT")
0.131
>>> numeric_result("TCTGCTAGGTCAGTTGGTCAGCCAACGAGCTGCC")
2.84
>>> numeric_result("GGAACGAGGGCAAGTTAATAGCAGAGTTTGATGG")
1.46
>>> numeric_result("CGTCTAAGGTCAGAGAGGTCAGTGAATGCCGAGT")
6.8
>>> numeric_result("AGTCAAAGTTCACTAGGTAACCTAAGATTCAGCT")
5.2
>>> numeric_result("TCATATAGGTGAATGCTAGGTGAAAGTCCGATCT")
1.54
>>> numeric_result("GGAACCAGGGCAAGTTGATAGCAGAGTTTGATGG")
1.17
>>> numeric_result("CCAGACAGGTGAGAAGGTGACTCAGCCTCGATTA")
1.04
>>> numeric_result("ACTATTTGTTGACTTAGGGCAACCGATACGACGC")
0.754
>>> numeric_result("TCATATAGGTAAATGCTAGGTGAAACTCCGATCT")
0.657
>>> numeric_result("CGTCCAAGGTCCTAGGAGGTCAGTGAAGACAGAT")
2.53
>>> numeric_result("CGTCCAAGGTCAGCCGGTCAGTGAAAGCGACGTG")
5.54
>>> numeric_result("CCAGACAGGTGAAAGGTACCTCAGTCTGGTACGC")
0.666
>>> numeric_result("CAAACTAGGTTAAAGGTCAAAGTCGAGCCAACCA")
7.04
>>> numeric_result("TCTGCTAGGTCAACGATGGTAAGCTAATCTGCTA")
3.8
>>> numeric_result("CCTGCTAGGTCACGGTCAGCTAATCTACAGTATG")
5.01
>>> numeric_result("TCTTGTAGATCAAGCAGGCTAAGAAAGCCTGAGT")
-0.605
>>> numeric_result("CGAACTAGGTCAGAACGGGACAGTGAAGGATGAT")
2.2
>>> numeric_result("CCTCGGAGGACAGAAGGTCAGAACTGTCCGCTTT")
2.9
>>> numeric_result("CGAACTAGGTCCGAACAGGACAGTGAAGGATGAT")
-0.22
>>> numeric_result("TCATATAGATAAAAGGTGAAAGTCGGTGTGGTAA")
1.23
>>> numeric_result("AGAACGAGGGCAGGCTGAGTTGATAGCAGAGTAG")
0.569
>>> numeric_result("CCTACTAGGCCATCAGGTCATTGATATCAACGTT")
2.45
>>> numeric_result("TCTGCTAGGTCAGTTGCTCAGCTAACGAGCTGCC")
2.18

###

system: PPARg:RXRa 30nM:10nM, anti-RXR (NR concentration 30 nM, RXRa partner concentration 10 nM); test: PBM binding z-score (relative to random genomic background probes); higher = stronger binding; sequences stand for … in GC…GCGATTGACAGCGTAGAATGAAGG
endpoint: PBM binding z-score

>>> numeric_result("ATCTCTAGGTAACCAAGTTCAGTCAATGCCGAAC")
0.185
>>> numeric_result("ATCTCTAGGTAAAGATACTTCAGTGAATGCAAAT")
0.521
>>> numeric_result("CCTAGCAGGCCAATTTGGGTCACTCAAGGCTTGA")
-0.434
>>> numeric_result("ATCGCAAGGTCGTGAGGTGAGTATACAGAAAGGC")
0.321
>>> numeric_result("ACTAGCAGGCCAAGGGTTACTCAAGATTAGTCCG")
4.58
>>> numeric_result("AGAACGAGGGCAATGAGTTGATAACACGGGTGGC")
0.0129
>>> numeric_result("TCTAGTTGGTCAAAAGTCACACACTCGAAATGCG")
6.15
>>> numeric_result("ATCGATAGGTCGACGAGGTGAGTATACACCGTTT")
0.467
>>> numeric_result("CCAGACAGGTAAAAGGTAACTCAGTCTGGTACGC")
2.27
>>> numeric_result("GCTCGGATGACAAGGTCAGAGCTTTGTCCGTAGA")
-0.707
>>> numeric_result("ATCTCTAGGTAAAGTTCACTGAAAGATCGATAGA")
4.25
>>> numeric_result("TCATATAGGTAATACAGGTAAAAGTCGGCATCTA")
4.14

###

tested on: PPARg:RXRa 90nM:30nM, anti-RXR (NR concentration 90 nM, RXRa partner concentration 30 nM); test: PBM binding z-score (relative to random genomic background probes); higher = stronger binding; sequences stand for … in GC…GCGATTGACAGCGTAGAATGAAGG
We'd kindly ask you to apply these PBM binding z-score classes: band A (below 0.6), band B (0.6 to below 4), band C (4 or more)

>>> assigned_class("GCTAGTTGGTCAGTAAAAGCTCACACACCGGTCG")
"band A"
>>> assigned_class("TAGCCTAGGTCATGCGGGGCAGTATAGTGTCGGC")
"band B"
>>> assigned_class("TCATATAGGTAAAAGGTGAAATTCGGTGTGGTAA")
"band C"
>>> assigned_class("TCTTGTAGATCAATAGAGCTTAAGAAAGTGCGCT")
"band B"
>>> assigned_class("ACTAGCAGGCCAAGTTTGGGTCAATCAAACAAAG")
"band A"
>>> assigned_class("ACTAGCAGGCCAAGGGTCACTTAAGATTAGTCCG")
"band C"
>>> assigned_class("CCGAGTAGATTATGGGGCATTCAGGCAACGGTGA")
"band A"
>>> assigned_class("CCTTACGGGTCAAGGTTATAGCGCGGGTGGTACG")
"band B"
>>> assigned_class("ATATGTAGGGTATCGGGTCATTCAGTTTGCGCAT")
"band C"
>>> assigned_class("AGAATGATGTTAAGATCAGGGAAACAGAATACAT")
"band A"
>>> assigned_class("ACAGACAGGTGACGAAGGTAACTCAGGCTATCAT")
"band A"
>>> assigned_class("TCTATTAGTTGATTAGGGCAACCGCAACAGCGGA")
"band B"
>>> assigned_class("CGTCAAAGTTCAACTAAGGTAAGGTAAAGCACGC")
"band C"
>>> assigned_class("CCTGCTAGGTCCTGGTCAGCTAATCTACAGTATG")
"band A"
>>> assigned_class("TCTAGTAGATCAACAGGAGGTTAAGAAAGATCGA")
"band B"
>>> assigned_class("ATATGTAGGTTAATGGTCATTCAGGTTGGTTCGC")
"band C"
>>> assigned_class("ACTATTAGTTGAGTCGAGGGCAACCGATAGGTTG")
"band A"
>>> assigned_class("TTACCAAGGTGAAAGGTCGTCGATGCACGCCTTG")
"band C"
>>> assigned_class("TAGCCTAGGTCATTGGGCAAGTATAGTACGCATC")
"band B"
>>> assigned_class("CGAACTAGGTCATCCAGGACAATGAATACATTGA")
"band C"
>>> assigned_class("GCATATAGGTAATACAAGGTGAGAGTCCGATTGT")
"band B"
>>> assigned_class("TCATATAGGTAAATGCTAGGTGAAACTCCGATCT")
"band B"
>>> assigned_class("CATACTAGGTCACAGAGGTCAAAGTCCGTGCGTA")
"band C"
>>> assigned_class("TCGAGTAGCTTACCAATGGGGCATTCAGCTTTCT")
"band A"
